Assign inhibition to each entry below.
measured.on: Glucose transporter (Leishmania mexicana)
assay.remarks: ST_JUDE_LEISH: Cytotoxicity at 2uM final concentration against transgenic Leishmania Mexicana promastigotes LmGT2 that are glucose transport deficient and complemented with the L. Mexicana glucose transporter 2. Activity is measured by DNA content using SYBR green in vitro
Format: functional
Express the reported value numerically, then name its unit.

The compound O=C(Nc1ccc(CN2CCCCC2)cc1)c1ccc(COc2ccc([N+](=O)[O-])cc2)o1 , tested on Glucose transporter (Leishmania mexicana), showed inhibition of 0.44%

# inhibition measured on Glucose transporter (Leishmania mexicana) for item CC(C)Oc1ccc(N2CCN(CCCCNC(=O)c3ccc(NC(=O)c4ccc(Cl)cc4)cc3)CC2)c(OC(C)C)c1 = 1.44%

Entry CN1CCC(N2CCN(Cc3cccc(-c4cccc(-c5nc6ccccc6[nH]5)c4)c3)CC2)CC1 under Glucose transporter (Leishmania mexicana) had inhibition of -3.95%

# inhibition measured on Glucose transporter (Leishmania mexicana) for item Cc1cc(-c2ccc(CNC3Cc4ccccc4C3)cc2)ccc1S(=O)(=O)NCCN1CCCC1 = 3.47%

The observed inhibition for Cc1ccc(Nc2nccc(NCC(O)c3cccc(C)c3)n2)cc1 (stereo not given) when tested with Glucose transporter (Leishmania mexicana) stands at 3.22%

Field inhibition (Glucose transporter (Leishmania mexicana)), entry Cc1cc(OCCCN2CCC(NS(=O)(=O)c3cc(Br)c(Cl)s3)CC2)c2ccccc2n1 : -0.25%

So the reported inhibition for CCN1CCC(NCc2ccc(-c3ccc(Cl)s3)cc2)CC1 , on Glucose transporter (Leishmania mexicana), turned out to be -1.7%

Noted inhibition for CC(=NNC(S)=NCCc1ccccc1)c1ccccn1 , tested on Glucose transporter (Leishmania mexicana): 23.6%

# Cc1nn(C)c(C)c1CN(Cc1nc(-c2cccc(Oc3ccccc3)c2)oc1C)C1CC1 with Glucose transporter (Leishmania mexicana): inhibition is 5.34%

Readout inhibition for COc1ccc(Nc2ncc3c(-c4ccc(NC(=O)c5cccc(C(F)(F)F)c5)cc4)c[nH]c3n2)cc1OC , test system Glucose transporter (Leishmania mexicana), was -0.51%
